Where do these numbers come from? They come from patent US20190308963A1.

# Assayed target: PI3Kδ (p110δ/p85α) (Homo sapiens)
# Sequence (O00329 whole entry): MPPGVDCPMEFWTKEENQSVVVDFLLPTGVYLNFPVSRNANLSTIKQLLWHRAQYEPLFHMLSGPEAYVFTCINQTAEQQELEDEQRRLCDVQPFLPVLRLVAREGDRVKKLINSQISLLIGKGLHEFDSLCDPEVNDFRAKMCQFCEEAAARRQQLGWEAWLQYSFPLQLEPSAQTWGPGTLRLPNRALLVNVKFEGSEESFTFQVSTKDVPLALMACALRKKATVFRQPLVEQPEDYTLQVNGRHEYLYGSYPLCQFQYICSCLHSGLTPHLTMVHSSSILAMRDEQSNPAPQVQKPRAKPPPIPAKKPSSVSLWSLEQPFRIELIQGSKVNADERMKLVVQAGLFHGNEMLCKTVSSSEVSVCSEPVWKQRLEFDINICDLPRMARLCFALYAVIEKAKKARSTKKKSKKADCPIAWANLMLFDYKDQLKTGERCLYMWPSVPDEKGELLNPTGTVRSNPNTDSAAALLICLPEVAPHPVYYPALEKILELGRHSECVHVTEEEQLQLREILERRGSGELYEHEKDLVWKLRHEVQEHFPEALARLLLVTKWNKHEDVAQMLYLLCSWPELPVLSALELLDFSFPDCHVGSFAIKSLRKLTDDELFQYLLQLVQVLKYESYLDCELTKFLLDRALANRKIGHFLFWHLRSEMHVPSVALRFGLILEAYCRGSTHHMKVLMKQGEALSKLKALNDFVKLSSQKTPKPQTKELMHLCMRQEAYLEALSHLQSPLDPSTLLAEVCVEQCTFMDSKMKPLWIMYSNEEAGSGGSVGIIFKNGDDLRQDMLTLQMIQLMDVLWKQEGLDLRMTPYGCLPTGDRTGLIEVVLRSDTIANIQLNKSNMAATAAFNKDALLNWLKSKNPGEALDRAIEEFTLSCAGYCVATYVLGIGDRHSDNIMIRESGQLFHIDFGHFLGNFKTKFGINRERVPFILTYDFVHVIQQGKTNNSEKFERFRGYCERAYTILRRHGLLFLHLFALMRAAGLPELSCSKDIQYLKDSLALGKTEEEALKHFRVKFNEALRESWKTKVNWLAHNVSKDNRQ
# Sequence (P27986 whole entry partner): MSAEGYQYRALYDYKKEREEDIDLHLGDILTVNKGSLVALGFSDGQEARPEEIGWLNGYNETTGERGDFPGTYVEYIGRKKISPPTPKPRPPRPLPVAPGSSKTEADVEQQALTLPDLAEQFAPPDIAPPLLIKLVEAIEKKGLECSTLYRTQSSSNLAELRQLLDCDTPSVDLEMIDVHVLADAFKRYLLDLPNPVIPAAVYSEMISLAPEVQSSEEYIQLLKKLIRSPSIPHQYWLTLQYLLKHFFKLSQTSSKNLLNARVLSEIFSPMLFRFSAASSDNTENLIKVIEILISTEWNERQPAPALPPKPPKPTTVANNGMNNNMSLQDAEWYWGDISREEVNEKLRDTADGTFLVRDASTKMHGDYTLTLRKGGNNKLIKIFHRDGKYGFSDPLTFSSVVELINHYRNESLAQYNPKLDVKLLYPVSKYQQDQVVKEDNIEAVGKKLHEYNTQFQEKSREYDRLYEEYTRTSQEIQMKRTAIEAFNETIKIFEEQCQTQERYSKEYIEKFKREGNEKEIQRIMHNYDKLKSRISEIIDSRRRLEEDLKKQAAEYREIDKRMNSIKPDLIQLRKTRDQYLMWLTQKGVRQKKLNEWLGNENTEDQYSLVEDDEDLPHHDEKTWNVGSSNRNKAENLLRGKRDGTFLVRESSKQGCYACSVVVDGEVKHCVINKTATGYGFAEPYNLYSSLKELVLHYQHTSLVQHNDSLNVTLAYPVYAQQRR
# Protocol text: cell-free PI3K HTRF assay, PI3Kδ
Label 1 (yes) when IC50 < 4 nM; otherwise 0 (no).

Consider Cn1cc(-c2cccc3cc([C@@H]4CCCN4c4nc(N)nc(N)c4C#N)c(N4CCOCC4)nc23)c2cc[nH]c2c1=O [Compound 24] . Does its IC50 lie strictly below 4 nM? 1 (yes)

Consider Cc1cc(-c2cccc3cc(C4CCCN4c4ncnc(N)c4C#N)c(-c4ccccc4)nc23)cn(C)c1=O (stereo not shown) [Compound 28] . Does its IC50 lie strictly below 4 nM? 1 (yes)

Consider Cc1nnc2ccc(-c3cccc4cc(C5CCCN5c5ncnc(N)c5C#N)c(N5CCOCC5)nc34)nn12 (stereo not shown) [Compound 10] . Does its IC50 lie strictly below 4 nM? 0 (no)

Consider Cc1cc(-c2cccc3cc(C4CCCN4c4ncnc(N)c4C#N)c(N4CCOCC4)nc23)cn(C)c1=O (stereo not shown) [Compound 11] . Does its IC50 lie strictly below 4 nM? 0 (no)

Consider Cc1noc(C)c1-c1cccc2cc(C3CCCN3c3ncnc(N)c3C#N)c(N3CCOCC3)nc12 (stereo not shown) [Compound 9] . Does its IC50 lie strictly below 4 nM? 1 (yes)

Consider Cc1cc(-c2cccc3cc([C@@H]4CCCN4c4ncnc(N)c4C#N)c(N4CCOCC4)nc23)cn(C)c1=O [Compound 23] . Does its IC50 lie strictly below 4 nM? 1 (yes)

Consider Cn1cc(-c2cccc3cc(C4CCCN4c4nc(N)nc(N)c4C#N)c(N4CCOCC4)nc23)c2cc[nH]c2c1=O (stereo not shown) [Compound 21] . Does its IC50 lie strictly below 4 nM? 1 (yes)

---

# Assayed target: PI3Kα (p110α/p85α) (Homo sapiens, UniProt P42336)
# Sequence (P42336 whole entry): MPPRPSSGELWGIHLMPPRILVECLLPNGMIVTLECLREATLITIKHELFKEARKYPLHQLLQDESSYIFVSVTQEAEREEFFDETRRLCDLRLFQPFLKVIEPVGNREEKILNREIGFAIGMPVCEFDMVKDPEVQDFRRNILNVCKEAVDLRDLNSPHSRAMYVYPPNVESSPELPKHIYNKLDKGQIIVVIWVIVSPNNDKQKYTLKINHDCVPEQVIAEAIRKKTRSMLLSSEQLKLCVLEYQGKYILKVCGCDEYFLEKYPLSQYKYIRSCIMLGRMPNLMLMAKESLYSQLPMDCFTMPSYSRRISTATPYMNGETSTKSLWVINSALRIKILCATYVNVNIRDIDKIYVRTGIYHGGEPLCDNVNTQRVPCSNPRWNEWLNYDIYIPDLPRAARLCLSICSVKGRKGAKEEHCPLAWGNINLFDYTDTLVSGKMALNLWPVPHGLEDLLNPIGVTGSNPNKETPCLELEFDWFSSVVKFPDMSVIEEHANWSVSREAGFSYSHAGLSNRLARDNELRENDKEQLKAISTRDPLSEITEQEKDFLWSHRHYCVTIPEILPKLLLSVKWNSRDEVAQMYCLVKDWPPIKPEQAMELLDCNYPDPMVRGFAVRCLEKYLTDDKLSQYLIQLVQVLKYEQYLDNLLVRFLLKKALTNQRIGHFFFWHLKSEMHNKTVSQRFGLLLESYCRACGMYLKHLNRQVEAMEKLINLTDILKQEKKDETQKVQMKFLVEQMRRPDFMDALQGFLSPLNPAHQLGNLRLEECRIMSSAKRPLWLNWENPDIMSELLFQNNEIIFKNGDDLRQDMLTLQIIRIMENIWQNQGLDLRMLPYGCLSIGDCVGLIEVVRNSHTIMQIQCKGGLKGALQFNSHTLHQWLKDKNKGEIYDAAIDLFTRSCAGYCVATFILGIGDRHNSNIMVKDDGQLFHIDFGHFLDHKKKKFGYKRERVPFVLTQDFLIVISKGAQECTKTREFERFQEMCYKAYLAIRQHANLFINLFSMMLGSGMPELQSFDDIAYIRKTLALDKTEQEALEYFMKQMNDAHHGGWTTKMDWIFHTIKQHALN
# Sequence (P27986 whole entry partner): as the sequence (P27986 whole entry partner) above
# Protocol text: cell-free PI3K HTRF assay, PI3Kα
Endpoint label: log10 of IC50 (log10 of the value in nM)
A difference of one corresponds to tenfold IC50; all values are log10 with IC50 in nM.

Would you mind telling me what log10 of IC50 value was observed for Cc1cc(-c2cccc3cc(C4CCCN4c4ncnc(N)c4C#N)c(-c4ccccc4)nc23)cn(C)c1=O (stereo not shown) [Compound 28] ? 3.01

Would you mind telling me what log10 of IC50 value was observed for Cc1cc(-c2cccc3cc(C4CCCN4c4ncnc(N)c4C#N)c(-c4cccnc4)nc23)cn(C)c1=O (stereo not shown) [Compound 29] ? 2.94

Would you mind telling me what log10 of IC50 value was observed for Cc1cc(-c2cccc3cc([C@@H]4CCCN4c4ncnc(N)c4C#N)c(N4CCOCC4)nc23)cn(C)c1=O [Compound 23] ? 2.18

Would you mind telling me what log10 of IC50 value was observed for Cc1cc(-c2cccc3cc(C4CCCN4c4ncnc(N)c4C#N)c(N4CCOCC4)nc23)cn(C)c1=O (stereo not shown) [Compound 11] ? 2.39

Would you mind telling me what log10 of IC50 value was observed for Cc1cc(-c2cccc3cc(C4CCCN4c4ncnc(N)c4C#N)c(N(C)C)nc23)cn(C)c1=O (stereo not shown) [Compound 19] ? 2.73

Would you mind telling me what log10 of IC50 value was observed for Cn1cc(-c2cccc3cc(CNc4nc(N)nc(N)c4C#N)c(N4CCOCC4)nc23)c2cc[nH]c2c1=O [Compound 25] ? 1.31

Would you mind telling me what log10 of IC50 value was observed for CC(C)Nc1nc2c(-c3cn(C)c(=O)c4[nH]ccc34)cccc2cc1C1CCCN1c1ncnc(N)c1C#N (stereo not shown) [Compound 22] ? 2.74

Would you mind telling me what log10 of IC50 value was observed for Cc1cc(-c2cccc3cc(C4CCCN4c4ncnc(N)c4C#N)c(N4CCCCC4)nc23)cn(C)c1=O (stereo not shown) [Compound 18] ? 3.63

Would you mind telling me what log10 of IC50 value was observed for Cn1cc(-c2cccc3cc([C@@H]4CCCN4c4nc(N)nc(N)c4C#N)c(N4CCOCC4)nc23)c2cc[nH]c2c1=O [Compound 24] ? 1.26

Would you mind telling me what log10 of IC50 value was observed for Cn1cc(-c2cccc3cc(C4CCCN4c4nc(N)nc(N)c4C#N)c(N4CCOCC4)nc23)c2cc[nH]c2c1=O (stereo not shown) [Compound 21] ? 1.73

---

# Assayed target: PI3Kδ (p110δ/p85α) (Homo sapiens)
# Protocol text: cell-free PI3K HTRF assay, PI3Kδ
Label fulfilled when IC50 < 2 nM; otherwise not fulfilled.

Consider Cc1noc(C)c1-c1nc2c(C)cccc2cc1C1CCCN1c1ncnc(N)c1C#N (centres unmarked) [Compound 3] . Does its IC50 lie strictly below 2 nM? fulfilled

Consider Cn1cc(-c2cccc3cc(C4CCCN4c4ncnc(N)c4C#N)c(N4CCOCC4)nc23)c2cc[nH]c2c1=O (centres unmarked) [Compound 12] . Does its IC50 lie strictly below 2 nM? not fulfilled

Consider Cc1cc(-c2cccc3cc(C4CCCN4c4ncnc(N)c4C#N)c(-c4cccnc4)nc23)cn(C)c1=O (centres unmarked) [Compound 29] . Does its IC50 lie strictly below 2 nM? fulfilled

Consider Cc1nnc2ccc(N3CCN(c4nc5cc(F)ccc5cc4C4CCCN4c4ncnc(N)c4C#N)CC3)nn12 (centres unmarked) [Compound 4] . Does its IC50 lie strictly below 2 nM? fulfilled

Consider CC(C)Nc1nc2c(-c3cn(C)c(=O)c4[nH]ccc34)cccc2cc1C1CCCN1c1ncnc(N)c1C#N (centres unmarked) [Compound 22] . Does its IC50 lie strictly below 2 nM? not fulfilled

Consider Cc1cc(-c2cccc3cc(C4CCCN4c4ncnc(N)c4C#N)c(N4CCCCC4)nc23)cn(C)c1=O (centres unmarked) [Compound 18] . Does its IC50 lie strictly below 2 nM? fulfilled

Consider Cc1cc(-c2cccc3cc(C4CCCN4c4ncnc(N)c4C#N)c(N(C)C)nc23)cn(C)c1=O (centres unmarked) [Compound 19] . Does its IC50 lie strictly below 2 nM? not fulfilled

---

Kindly state IC50 for each of the entries shown.
# Assayed target: BRD4 (BD1) (Homo sapiens, UniProt O60885)
# Construct: recombinant human BRD4 (BD1; aa 44-170)
# Protocol text: AlphaScreen FRET binding assay, BRD4 (BD1)
# Measurement parameters: read-out: IC50 value for the inhibition of BRD4 (BD1)
Report the value in nM with no unit label.

Would you mind telling me what IC50 value was observed for Cc1cc(-c2cccc3cc(C4CCCN4c4ncnc(N)c4C#N)c(N4CCOCC4)nc23)cn(C)c1=O (stereo not shown) ? 24

Would you mind telling me what IC50 value was observed for Cn1cc(-c2cccc3cc(CNc4nc(N)nc(N)c4C#N)c(N4CCOCC4)nc23)c2cc[nH]c2c1=O ? 55.3

Would you mind telling me what IC50 value was observed for Cc1cc(-c2cccc3cc(C4CCCN4c4ncnc(N)c4C#N)c(-c4ccccc4)nc23)cn(C)c1=O (stereo not shown) ? 446

Would you mind telling me what IC50 value was observed for Cn1cc(-c2cccc3cc([C@@H]4CCCN4c4nc(N)nc(N)c4C#N)c(N4CCOCC4)nc23)c2cc[nH]c2c1=O ? 12.5

Would you mind telling me what IC50 value was observed for Cc1cc(-c2cccc3cc(C4CCCN4c4ncnc(N)c4C#N)c(N(C)C)nc23)cn(C)c1=O (stereo not shown) ? 23.9

Would you mind telling me what IC50 value was observed for Cc1cc(-c2cccc3cc([C@@H]4CCCN4c4ncnc(N)c4C#N)c(N4CCOCC4)nc23)cn(C)c1=O ? 26.7

Would you mind telling me what IC50 value was observed for Cn1cc(-c2cccc3cc(C4CCCN4c4ncnc(N)c4C#N)c(N4CCOCC4)nc23)c2cc[nH]c2c1=O (stereo not shown) ? 35

---

Kindly state pIC50 for each of the entries shown.
# Assayed target: BRD4 (BD1) (Homo sapiens)
# Construct: recombinant human BRD4 (BD1; aa 44-170)
# Protocol text: AlphaScreen FRET binding assay, BRD4 (BD1)
# Measurement parameters: read-out: IC50 value for the inhibition of BRD4 (BD1)
Kindly note that pIC50 refers to -log10 of the concentration in mol/L and answer with the value alone.

Would you mind telling me what pIC50 value was observed for Cc1noc(C)c1-c1cccc2cc(C3CCCN3c3ncnc(N)c3C#N)c(N3CCOCC3)nc12 (stereo not drawn) ? 5.02

Would you mind telling me what pIC50 value was observed for Cc1nnc2ccc(N3CCN(c4nc5cc(F)ccc5cc4C4CCCN4c4ncnc(N)c4C#N)CC3)nn12 (stereo not drawn) ? 5.10

Would you mind telling me what pIC50 value was observed for Cc1cc(-c2ccc3cc(C4CCCN4c4ncnc(N)c4C#N)c(N4CCOCC4)nc3c2)cn(C)c1=O (stereo not drawn) ? 7.55

Would you mind telling me what pIC50 value was observed for Cn1cc(-c2cccc3cc(C4CCCN4c4nc(N)nc(N)c4C#N)c(N4CCOCC4)nc23)c2cc[nH]c2c1=O (stereo not drawn) ? 7.61

Would you mind telling me what pIC50 value was observed for Cn1cc(-c2ccc3cc(C4CCCN4c4ncnc(N)c4C#N)c(N4CCOCC4)nc3c2)c2cc[nH]c2c1=O (stereo not drawn) ? 8.46

Would you mind telling me what pIC50 value was observed for Cc1nnc2ccc(-c3cccc4cc(C5CCCN5c5ncnc(N)c5C#N)c(N5CCOCC5)nc34)nn12 (stereo not drawn) ? 5.40
